# TESTED TARGET: S1P1 (Homo sapiens, UniProt P21453)
# Construct: crude membranes
# Sequence (P21453 whole entry): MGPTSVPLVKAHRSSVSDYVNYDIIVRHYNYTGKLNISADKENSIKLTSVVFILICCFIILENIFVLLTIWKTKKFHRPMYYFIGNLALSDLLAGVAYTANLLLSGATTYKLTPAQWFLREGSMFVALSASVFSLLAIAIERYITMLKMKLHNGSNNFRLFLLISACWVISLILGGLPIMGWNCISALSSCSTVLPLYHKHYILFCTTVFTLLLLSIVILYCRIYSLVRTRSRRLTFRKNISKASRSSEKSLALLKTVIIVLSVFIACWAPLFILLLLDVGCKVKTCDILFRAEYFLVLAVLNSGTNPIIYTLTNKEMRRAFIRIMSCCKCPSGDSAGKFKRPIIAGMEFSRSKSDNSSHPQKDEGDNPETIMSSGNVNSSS
# METHOD: GTPγS binding assay using S1P receptor/HEK293 membrane preparations
# MEASUREMENT CONTEXT: membranes of transiently transfected HEK293 cells
MEASURED ENDPOINT: EC50 (nM)

P. CCCCCc1ccc(-c2ccc(CCC(N)(CO)CO)cc2)cc1
Q. NC(CO)(CO)CCc1ccc(-c2ccc(OCc3ccc(F)c(F)c3)cc2)cc1
R. CCCc1cc(-c2ccc(-c3ccc(CCC(N)(CO)CO)cc3)cc2)no1
[ask] List these items ordered by EC50, big to small. Output spec: a listing of the labels in the requested order.
[reply] P, R, Q
(P: 0.33 nM, R: 0.16 nM, Q: 0.07 nM)

###

This listing pairs compounds with measured pEC50.
# TESTED TARGET: S1P4 (Homo sapiens)
# Construct: crude membranes
# Sequence (O95977 1-384): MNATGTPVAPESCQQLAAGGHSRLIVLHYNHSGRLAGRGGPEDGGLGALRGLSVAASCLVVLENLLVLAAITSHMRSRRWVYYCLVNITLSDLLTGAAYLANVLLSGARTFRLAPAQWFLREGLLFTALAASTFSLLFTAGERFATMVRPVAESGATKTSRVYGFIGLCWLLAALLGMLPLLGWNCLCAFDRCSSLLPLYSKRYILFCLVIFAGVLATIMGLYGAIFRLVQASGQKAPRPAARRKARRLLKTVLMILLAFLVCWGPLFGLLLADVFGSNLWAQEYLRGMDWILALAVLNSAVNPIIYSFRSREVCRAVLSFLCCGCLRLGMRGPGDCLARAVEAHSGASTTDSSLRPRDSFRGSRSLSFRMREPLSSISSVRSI
# METHOD: GTPγS binding assay using S1P receptor/HEK293 membrane preparations
# MEASUREMENT CONTEXT: membranes of transiently transfected HEK293 cells
# Method: A. In vitro: Binding Affinity of Compounds of Formula I to Individual Human S1P Receptors may be Determined in the Following Assays: Transient Transfection of Human S1P Receptors into HEK293 Cells […] GTPγS binding experiments are performed as described by D S. Im et al., Mol. Pharmacol. 2000; 57:753. Ligand-mediated GTPγS binding to G-proteins is measured in GTP binding buffer (in mM: 50 HEPES, 100 NaCl, 10 MgCl2, pH 7.5) using 25 μg of a membrane preparation from transiently transfected HEK293 cells. […]
pEC50: −log10 of the molar value.

CCCCCc1ccc(-c2ccc(CCC(N)(CO)CO)cc2)cc1    8.92

[ask] # query: pEC50 | item NC(CO)(CO)CCc1ccc(-c2ccc(OCc3ccc(F)c(F)c3)cc2)cc1 | system: S1P4 (Homo sapiens)
[reply] < 5.00

[ask] Entry to check: CCCc1cc(-c2ccc(-c3ccc(CCC(N)(CO)CO)cc3)cc2)no1
[reply] < 5.00

###

# TESTED TARGET: S1P2 (Homo sapiens, UniProt O95136)
# Construct: crude membranes
# Sequence (O95136 whole entry): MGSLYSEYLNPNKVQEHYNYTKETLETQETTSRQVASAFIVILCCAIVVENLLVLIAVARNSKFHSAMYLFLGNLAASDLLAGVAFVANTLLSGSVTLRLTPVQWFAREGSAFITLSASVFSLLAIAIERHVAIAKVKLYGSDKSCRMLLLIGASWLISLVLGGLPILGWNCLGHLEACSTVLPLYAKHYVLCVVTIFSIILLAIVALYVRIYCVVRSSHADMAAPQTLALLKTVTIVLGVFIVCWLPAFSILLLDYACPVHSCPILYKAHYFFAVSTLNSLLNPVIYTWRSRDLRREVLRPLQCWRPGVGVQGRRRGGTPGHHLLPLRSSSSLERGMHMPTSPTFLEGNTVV
# METHOD: GTPγS binding assay using S1P receptor/HEK293 membrane preparations
# MEASUREMENT CONTEXT: membranes of transiently transfected HEK293 cells
pEC50: −log10 of the molar value.
MEASURED ENDPOINT: pEC50

# example entries with known answers
CCCc1cc(-c2ccc(-c3ccc(CCC(N)(CO)CO)cc3)cc2)no1    < 5.00
NC(CO)(CO)CCc1ccc(-c2ccc(OCc3ccc(F)c(F)c3)cc2)cc1    < 5.00

Next item in the queue.
[ask] // returns reported pEC50 for input CCCCCc1ccc(-c2ccc(CCC(N)(CO)CO)cc2)cc1
[reply] < 5.00

Origin of the recorded values: patent US7169817B2
